# experimental_target: wild-type androgen receptor (AR) (Homo sapiens, UniProt P10275)
# Sequence (P10275 1-920): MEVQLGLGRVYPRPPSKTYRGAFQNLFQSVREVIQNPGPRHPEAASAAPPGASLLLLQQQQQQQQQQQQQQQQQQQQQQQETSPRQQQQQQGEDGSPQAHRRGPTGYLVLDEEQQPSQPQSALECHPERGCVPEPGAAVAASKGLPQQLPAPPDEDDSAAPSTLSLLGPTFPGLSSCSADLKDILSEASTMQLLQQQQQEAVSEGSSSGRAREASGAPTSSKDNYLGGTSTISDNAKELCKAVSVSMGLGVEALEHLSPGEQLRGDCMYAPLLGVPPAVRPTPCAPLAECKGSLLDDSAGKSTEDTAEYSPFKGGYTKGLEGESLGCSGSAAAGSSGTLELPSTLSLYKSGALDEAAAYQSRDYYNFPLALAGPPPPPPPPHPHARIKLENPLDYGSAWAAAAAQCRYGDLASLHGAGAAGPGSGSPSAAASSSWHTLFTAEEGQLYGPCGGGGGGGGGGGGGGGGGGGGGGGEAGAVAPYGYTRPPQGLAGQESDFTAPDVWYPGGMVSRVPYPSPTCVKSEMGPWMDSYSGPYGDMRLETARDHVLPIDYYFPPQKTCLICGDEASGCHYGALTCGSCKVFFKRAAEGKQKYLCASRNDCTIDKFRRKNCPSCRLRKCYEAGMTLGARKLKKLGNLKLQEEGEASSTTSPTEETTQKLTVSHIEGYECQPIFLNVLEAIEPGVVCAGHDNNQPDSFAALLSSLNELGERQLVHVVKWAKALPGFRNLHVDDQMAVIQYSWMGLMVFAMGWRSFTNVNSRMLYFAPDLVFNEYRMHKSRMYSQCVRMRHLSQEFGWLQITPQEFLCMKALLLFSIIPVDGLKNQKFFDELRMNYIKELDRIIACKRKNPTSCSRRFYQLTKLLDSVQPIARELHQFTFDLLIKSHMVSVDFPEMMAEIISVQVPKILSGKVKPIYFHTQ
# assay_remarks: AR binding inhibitory test (wild type)
# setup_conditions: 1 μM compound, 3 nM miboleron, 4° C. for 3 hours, dextran/charcoal B/F separation; read-out: Inhibitory rate (%) at 1 μM, Wild type
observed_property: inhibition at 1 µM (%)
Give just the numeric value; % need not be written.

Cc1c(C#N)c(-c2ccc(C#N)cc2)c(C)n1Cc1ccc(Cl)c(CO)c1 [Compound 26]    98
CCc1cc(-c2ccc(C#N)cc2)c(C)n1Cc1cnc(Cl)c(CO)c1 [Example 47]    50

// next entry
Report inhibition at 1 µM from wild-type androgen receptor (AR) (Homo sapiens, UniProt P10275) testing of Cc1c(C#N)c(-c2ccc(C#N)cc2)c(C)n1Cc1cnc(Cl)c(CO)c1 [Compound 1]
94

###

// reported inhibition at 1 µM per item
# experimental_target: androgen receptor (AR) having a LNCaP type mutation (Homo sapiens, UniProt P10275, T878A)
# Sequence (P10275 1-920 T878A): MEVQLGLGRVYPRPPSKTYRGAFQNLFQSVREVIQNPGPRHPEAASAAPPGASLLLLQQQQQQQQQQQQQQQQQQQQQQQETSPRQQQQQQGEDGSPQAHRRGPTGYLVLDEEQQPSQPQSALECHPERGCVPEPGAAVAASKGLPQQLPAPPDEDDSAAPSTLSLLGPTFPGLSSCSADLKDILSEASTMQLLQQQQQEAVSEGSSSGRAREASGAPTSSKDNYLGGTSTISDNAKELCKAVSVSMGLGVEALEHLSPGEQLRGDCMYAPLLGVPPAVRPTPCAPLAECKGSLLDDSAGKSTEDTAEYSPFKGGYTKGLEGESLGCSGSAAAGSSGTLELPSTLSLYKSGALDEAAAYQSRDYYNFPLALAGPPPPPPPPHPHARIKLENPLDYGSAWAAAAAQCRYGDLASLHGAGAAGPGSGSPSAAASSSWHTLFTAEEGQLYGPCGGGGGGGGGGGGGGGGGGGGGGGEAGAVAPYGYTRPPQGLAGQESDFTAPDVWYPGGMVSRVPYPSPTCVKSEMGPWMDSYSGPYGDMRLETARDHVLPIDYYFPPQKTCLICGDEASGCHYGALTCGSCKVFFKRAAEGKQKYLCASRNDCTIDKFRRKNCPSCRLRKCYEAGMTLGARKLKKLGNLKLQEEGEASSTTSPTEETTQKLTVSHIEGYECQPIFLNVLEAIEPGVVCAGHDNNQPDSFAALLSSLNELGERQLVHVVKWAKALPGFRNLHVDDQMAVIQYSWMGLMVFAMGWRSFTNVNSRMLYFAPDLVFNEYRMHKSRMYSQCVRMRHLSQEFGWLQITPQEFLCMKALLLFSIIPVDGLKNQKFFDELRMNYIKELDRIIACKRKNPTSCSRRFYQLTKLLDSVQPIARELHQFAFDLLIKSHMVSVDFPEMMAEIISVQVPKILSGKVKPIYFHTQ
# assay_remarks: AR binding inhibitory test (LNCaP type)
# setup_conditions: 1 μM compound, 3 nM miboleron, 4° C. for 3 hours, dextran/charcoal B/F separation; read-out: Inhibitory rate (%) at 1 μM, LNCaP type
Provide a numeric answer, followed by its unit.

Below are worked cases with known answers.
CCCc1c(C#N)c(-c2ccc(C#N)cc2)c(C)n1Cc1cnc(Cl)c(CO)c1 [Compound 3]    99%
CCc1c(C#N)c(-c2ccc(C#N)cc2)c(C)n1Cc1cnc(Cl)c(CO)c1 [Compound 2]    94%

Identify inhibition at 1 µM associated with the compound CCc1cc(-c2ccc(C#N)cc2)c(C)n1Cc1cnc(Cl)c(CO)c1 [Example 47]
81%

Query inhibition at 1 µM for Cc1c(-c2ccc(C#N)cc2)cc(C2CC2)n1Cc1cnc(Cl)c(CO)c1 [Example 48]
87%

Please give measured inhibition at 1 µM of the following entry: Cc1cc(-c2ccc(C#N)cc2)c(C)n1Cc1cnc(Cl)c(CO)c1 [Example 46]
89%

Annotate the compound Cc1c(-c2ccc(C#N)cc2)c(C#N)c(C2CC2)n1Cc1cnc(Cl)c(CO)c1 [Compound 5] with its measured inhibition at 1 µM.
96%

Return reported inhibition at 1 µM. Input compound: Cc1c(C#N)c(-c2ccc(C#N)cc2)c(C)n1Cc1ccc(Cl)c(CO)c1 [Compound 26]
93%
